System: human CSNK1D (Homo sapiens)
Sequence (P48730 whole entry): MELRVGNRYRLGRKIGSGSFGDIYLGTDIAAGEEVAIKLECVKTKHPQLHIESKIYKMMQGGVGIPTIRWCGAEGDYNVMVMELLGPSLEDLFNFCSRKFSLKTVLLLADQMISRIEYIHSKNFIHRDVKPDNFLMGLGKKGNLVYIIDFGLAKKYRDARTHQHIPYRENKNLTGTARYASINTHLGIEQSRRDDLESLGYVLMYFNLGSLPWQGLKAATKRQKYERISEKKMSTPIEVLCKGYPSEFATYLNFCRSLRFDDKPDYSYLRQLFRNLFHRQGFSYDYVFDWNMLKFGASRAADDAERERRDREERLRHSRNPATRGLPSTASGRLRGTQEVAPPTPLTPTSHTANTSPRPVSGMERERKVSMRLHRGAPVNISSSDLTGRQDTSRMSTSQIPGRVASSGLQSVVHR
Method: Whole Cell nBRET CSNK1D Binding Assay
Experimental setup: living CHO cells stably expressing human CSNK1D tagged with nanoluciferase; NanoBret tracer 130 nM; 2 hours at 37 C
Observed property: IC50 (nM)
Express it in nM; write the number only.

Fc1ccc(-c2nn3c(c2-c2ccnc4[nH]ncc24)CC2(C3)CC2(F)F)nc1 (single isomer, unassigned) [Example 255]; 1950

Asked: What IC50 value was documented for this compound, CC1COc2c(-c3ccnc4[nH]ncc34)c(-c3ccc(F)cc3)nn2C1 (stereo not shown) ?
Given back: 5

Asked: What IC50 value was documented for this compound, C[C@H]1OCc2c(-c3ccnc4[nH]ncc34)c(-c3ccc(F)cn3)nn2[C@H]1C (single isomer, unassigned) ?
Given back: 926

Asked: What IC50 value was documented for this compound, `Fc1ccc(-c2nn3c(c2-c2ccnc4[nH]ccc24)COCC3)nc1` ?
Given back: 81
